- MEASUREMENT NOTES: HIV Vif self-association inhibitors, primary screen, imaging, HEK293T, single point (AID 602346)
- STATED CONDITIONS: HEK293T cells, Vif self-association by quenched fluorescence, 24 h, at 7.49 µM, active compounds read high
In all, about 340,000 compounds went through this assay and about 1,200 (0.35%) were called active. The full list was thinned out, with actives kept by preference.
VALUE TYPE: inhibition (%)
Numbers only, in %.

CCC(CO)Oc1cc(NC(=O)c2cccc(F)c2)c2ncn(C(C)C)c2c1 (stereo unspecified) | -4.4
Cc1nc2c(OCc3cccc(Cl)c3)cccn2c1N(C)CC1CC1 | -11.2
COc1ccc(-c2cc(C(F)(F)F)nc(S(C)(=O)=O)n2)cc1OC | 90.1
O=C(NCc1cccnc1)Nc1cccc(NC(=O)NCc2cccnc2)c1F | 56
O=C(NCCOc1ccccc1)N1[C@H]2CC[C@@H]1C=C(c1ccc(F)cc1OCc1ccccc1)C2 | -2.23
O=C(NCc1nnnn1-c1ccc(Cl)cc1)c1ccc([N+](=O)[O-])o1 | 6.82
C#Cc1cc(N2CCN(C(=O)c3ccoc3)CC2)n2nc(-c3cccc(Cl)c3)cc2n1 | -5.39
CC(C)(C)Oc1ncc(Br)c(OC(C)(C)C)n1 | 61.1
COc1ccc(-c2ccc(Nc3ccc(S(=O)(=O)N4CCCC4)cc3)nn2)cc1OC | -7.98
CC12CCC(=O)C=C1CCC1C2C(O)CC2(C)C1CCC2(O)C(O)CO (stereo unspecified) | 24

Here are 7 molecules. What values of inhibition were reported for them?
1. CCOc1ccccc1NC(=O)Cn1nnc(C(=O)NCc2cccs2)c1N
2. Cc1cc2cc3n(c2nn1)N=C(Cl)CC3
3. COc1ccc(C(=O)N2CCCCC2c2cc(C(=O)Nc3ccccc3)no2)cc1 (stereo unspecified)
4. COc1cccc(-c2cnc(OC(C)(C)C)nc2OC(C)(C)C)c1
5. CCC(CO)Oc1cc(NC(=O)c2cccc3ccccc23)c2ncn(C(C)C)c2c1 (stereo unspecified)
6. COc1cccc(-c2cnc3c(NC(C)=O)cc(-c4cccc(NC(C)=O)c4)cn23)c1
7. OC(c1cc(Cl)cc(Cl)c1)c1ncc(-c2ccccc2C(F)(F)F)[nH]1 (stereo unspecified)

[out]
[62.1, 29.1, 13.8, -0.006, 1.25, -4.77, 7.62]

Value sought for every listed molecule: inhibition.
1. O=C(NCc1cccnc1)c1ccccc1NC(=O)c1c(F)cccc1F
2. Cc1nc2c(OCc3ccc(Cl)cc3)cccn2c1N(C)Cc1cccs1
3. CN(C)CCNC(=O)c1cccc(-c2cnc3c(NC=O)cc(-c4cccc(C(F)(F)F)c4)cn23)c1
4. CCCCC[C@@H]1C=C(C(=O)OCC)[C@H](c2ccccc2)N1S(=O)(=O)c1ccc(C)cc1

[out]
1: -6.43; 2: -12.4; 3: 5.61; 4: 3.46

###

- MEASUREMENT NOTES: HIV Vif self-association inhibitors, primary screen, imaging, HEK293T, single point (AID 602346)
- STATED CONDITIONS: HEK293T cells, Vif self-association by quenched fluorescence, 24 h, at 7.49 µM
About 1,200 (0.35%) of roughly 340,000 compounds were called active. No stated cut-off is given here; in the data, active means inhibition above about 50% (passing the limit was not always enough); inconclusive means no clear call, values can overlap the other calls; inactive means below about 31%. Only a selection was taken, and actives are over-represented in it overall.
One label from this list, please: T (active), F (inactive)

CC(C)Oc1ccc(CN2CCC2(C)C(=O)NCc2ccc(C(F)(F)F)cc2)cc1 (stereo not drawn) | F

Now look at this entry.
[in] Each compound tested received a call. Report the one for CCc1nc2c(OCc3ccc(Cl)cc3Cl)cccn2c1N(C)C(=O)C(C)C .
[out] F

###

- MEASUREMENT NOTES: HIV Vif self-association inhibitors, primary screen, imaging, HEK293T, single point (AID 602346)
- STATED CONDITIONS: HEK293T cells, Vif self-association by quenched fluorescence, 24 h, at 7.49 µM, active compounds read high
Out of some 340,000 compounds screened, about 1,200 (0.35%) were called active. The sample as a whole holds a higher share of actives than the screen did.
VALUE TYPE: inhibition (%)
Numbers only, in %.

Would you please look over these solved cases?
N#Cc1c(N)n(CCOC(=O)c2ccc(Cl)cc2)c2nc3ccccc3nc12 | -17.3
COc1ccc(CNC(=O)[C@H](Cc2c[nH]c3ccccc23)NC(C)=O)cc1OC | -6.67

Batch lookup, inhibition per entry.
1. CN(C)C(=O)c1cc(Br)ccc1Cl
2. COc1cccc(CNc2nc(NCc3ccccc3OC)nc3ccsc23)c1
3. CC(C)=CCc1ccc(O)c(=O)cc1C(C)C
4. CC(C)N=C1CCCC1C(=S)SSC(=S)C1CCCC1=NC(C)C (configuration not stated)

[out]
1: 102; 2: -2.52; 3: 114; 4: 0.152

###

- MEASUREMENT NOTES: HIV Vif self-association inhibitors, primary screen, imaging, HEK293T, single point (AID 602346)
- STATED CONDITIONS: HEK293T cells, Vif self-association by quenched fluorescence, 24 h, at 7.49 µM, active compounds read high
The campaign covered roughly 340,000 compounds. About 1,200 (0.35%) were called active. The sample as a whole holds a higher share of actives than the screen did.
VALUE TYPE: inhibition (%)
Give bare numbers, in %.

CCN(CC)C(=O)C1=C(C)N(Cc2ccc(C(C)(C)C)cc2)C(=O)C(CC(=O)NCc2cccc3ccccc23)C1 (centres undefined) | -1.52
COc1ccc(NC(=O)ON=C2c3ccccc3-c3ccccc32)cc1 | -9.14
COc1ccc(N/C=C(\C2OC(=O)c3ccccc32)[N+](=O)[O-])cc1 (centres undefined) | 50.1
COc1ccc(NC(=O)C2=C(C)NC(=O)NC2c2ccccc2[N+](=O)[O-])cc1 (centres undefined) | -2.26
CC1(C(=O)Nc2cccc3c2CCCC3)CCN1C(=O)CCc1ccc(Cl)cc1Cl (centres undefined) | -0.855

Provide each entry's inhibition from the list below.
1. COc1ccc(C2CC(c3ccc([N+](=O)[O-])cc3)=NN2C(C)=O)cc1 (centres undefined)
2. COc1ccc(C2CC(c3ccccc3)=NN2C(=O)c2ccc(Cl)c([N+](=O)[O-])c2)cc1 (centres undefined)
3. COc1ccc(-c2ccc(C(=O)NC(C)C)c3occc23)c(C)c1
4. C[C@@H]1CN([C@H](C)CO)S(=O)(=O)c2ccc(C#C[C@@H](C)O)cc2O[C@@H]1CN(C)Cc1ccc(-c2ccccc2)cc1

[out]
1. 1.95
2. 89.1
3. -26.1
4. -0.002

###

Kindly state inhibition for each of the entries shown.
- MEASUREMENT NOTES: HIV Vif self-association inhibitors, primary screen, imaging, HEK293T, single point (AID 602346)
- STATED CONDITIONS: HEK293T cells, Vif self-association by quenched fluorescence, 24 h, at 7.49 µM, active compounds read high
Among all 340,000 compounds or so, about 1,200 (0.35%) were called active. The full list was thinned out, with actives kept by preference.
Numbers only, in %.

NC(c1csc(NC(=O)Nc2cccc(C(F)(F)F)c2)n1)C1CCCCC1 (stereo not given) | -1.56
CCCCCCNC(=O)O[C@H]1CN(C(=O)OC(C)C)N(C(=O)OC(C)C)[C@@H]2CN(S(=O)(=O)c3ccc(C)cc3)C[C@]12O | -2.14
O=C(NCc1cccc(Cl)c1)C1CCC(=O)N(C2CC2)C1 (stereo not given) | -0.951
O=C(NCc1cccc(Cl)c1)C1=CC=CN2CCS(=O)(=O)N=C12 | 52.6

--- query ---
[in] Hello, please tell me recorded inhibition for this one: O=C(NCc1cccc(Cl)c1)C1CCN(c2nnc(N3CCCC3=O)s2)CC1
[out] 3.92

###

For each record, write down the corresponding inhibition.
- MEASUREMENT NOTES: HIV Vif self-association inhibitors, primary screen, imaging, HEK293T, single point (AID 602346)
- STATED CONDITIONS: HEK293T cells, Vif self-association by quenched fluorescence, 24 h, at 7.49 µM, active compounds read high
Screen size: about 340,000 compounds; about 1,200 (0.35%) were called active. The sample holds actives, similar compounds and a random draw of the others, so the mix is not that of the screen.
Give bare numbers, in %.

For the 8 molecules below, give their inhibition values.
1. O=C(c1ccco1)N1CCN(CCOc2ccccc2)CC1
2. CC(=NNC(=O)c1ccc2nc[nH]c2c1)c1ccc(Br)cc1
3. CCc1nc2c(OCCC3CCCCC3)cccn2c1N(C)C(=O)c1ccco1
4. CCN(CC)S(=O)(=O)c1ccc2c3c(cccc13)C(=O)S2
5. COc1ccc(CC(NC(C)=O)C(=O)NC2CCN(C(=O)C3CC3)CC2)cc1OC (stereo not given)
6. O=C(c1ccco1)N1CCN(C(=O)C2c3ccccc3Oc3ccccc32)CC1
7. C[C@@H]1CN([C@@H](C)CO)S(=O)(=O)c2ccc(C#Cc3cccc(F)c3)cc2O[C@H]1CN(C)S(=O)(=O)c1cn(C)cn1
8. C/C(=N\NC(=O)c1ccc2ccccc2c1)c1cccnc1

[out]
1: 3.05; 2: 63.5; 3: 3.23; 4: -0.161; 5: -0.652; 6: 2.39; 7: -26.5; 8: -7.71

Please state, for each entry, its recorded inhibition.
1. CCOC(=O)C(=Cc1ccccc1)C(=O)c1ccccc1
2. COc1ccc(/C(C)=N/NC(=O)c2ccc3nc[nH]c3c2)cc1

[out]
-5.2
1.81
